Value source: patent US20070249590A1

ASSAYED_TARGET: JAK3 (JH1 and JH2 domain) (Homo sapiens, UniProt P52333)
Sequence (P52333 521-1111 limits assumed): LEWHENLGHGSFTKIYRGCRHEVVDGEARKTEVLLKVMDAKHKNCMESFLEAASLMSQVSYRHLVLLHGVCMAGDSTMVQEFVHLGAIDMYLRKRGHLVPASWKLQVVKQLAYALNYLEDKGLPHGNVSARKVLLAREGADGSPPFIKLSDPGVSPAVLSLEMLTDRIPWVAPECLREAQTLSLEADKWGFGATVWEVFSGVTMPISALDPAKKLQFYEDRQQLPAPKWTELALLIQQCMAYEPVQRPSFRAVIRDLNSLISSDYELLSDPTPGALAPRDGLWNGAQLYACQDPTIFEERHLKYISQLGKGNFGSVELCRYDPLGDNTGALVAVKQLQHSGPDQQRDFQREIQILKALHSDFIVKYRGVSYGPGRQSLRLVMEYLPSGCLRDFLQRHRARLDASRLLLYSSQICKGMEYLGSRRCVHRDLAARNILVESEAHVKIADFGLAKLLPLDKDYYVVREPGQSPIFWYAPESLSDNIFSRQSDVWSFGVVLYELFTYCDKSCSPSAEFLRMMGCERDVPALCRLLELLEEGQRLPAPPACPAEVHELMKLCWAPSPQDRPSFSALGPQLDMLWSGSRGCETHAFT
TEST_SUMMARY: JAK3 Kinase Assay (ELISA of peptide substrate phosphorylation)
CONDITIONS_USED: purified JAK3 enzyme, 10 μM ATP, biotinylated peptide substrate, 1 hour at room temperature
EXPERIMENTAL_ENDPOINT: log10 of IC50 (log10 of the value in µM)
Reminder: these figures are log10 of reported IC50, in µM before transformation.

Some solved cases for reference:
COMPOUND	EXPERIMENTAL_ENDPOINT	READOUT_VALUE
O=C(NCc1ccc2c(c1)OCO2)OC1Cn2c3ccccc3c3c4c(c5c6ccccc6n(c5c32)CC1O)C(=O)NC4=O (stereo not drawn) [Cpd 80]	log10 of IC50	-1.00
O=C1NC(=O)c2c1c1c3ccccc3n3c1c1c2c2ccccc2n1CC(O)(C(=O)O)C(O)C3 (stereo not drawn) [Cpd 13]	log10 of IC50	-2.05
O=C1NCc2c1c1c3ccccc3n3c1c1c2c2ccccc2n1C[C@@H](O)[C@H](O)C3 [Cpd 19]	log10 of IC50	-1.28

Provide the reported log10 of IC50 of each entry below, same order.
1. O=C1NCc2c1c1c3ccccc3n3c1c1c2c2ccccc2n1CC(O)(COC(=O)N1CCC(N2CCCC2)CC1)C3 (stereo not drawn) [Cpd 150]
2. CN(C)CCN(C)C(=O)OCC1(O)Cn2c3ccccc3c3c4c(c5c6ccccc6n(c5c32)C1)C(=O)NC4 (stereo not drawn) [Cpd 148]
3. COc1ccc(CCNC(=O)OCC2(O)Cn3c4ccccc4c4c5c(c6c7ccccc7n(c6c43)C2)C(=O)NC5)cc1OC (stereo not drawn) [Cpd 153]
4. O=C(NC1CCNC1)OC1CCn2c3ccccc3c3c4c(c5c6ccccc6n(c5c32)C1)C(=O)NC4=O (stereo not drawn) [Cpd 72]
5. COc1ccc(CCNC(=O)OC2CCn3c4ccccc4c4c5c(c6c7ccccc7n(c6c43)C2)C(=O)NC5=O)cc1OC (stereo not drawn) [Cpd 49]
6. O=C(NCCN1CCCC1)OC1Cn2c3ccccc3c3c4c(c5c6ccccc6n(c5c32)CC1O)C(=O)NC4=O (stereo not drawn) [Cpd 92]

output:
[-1.35, -1.60, -1.77, -1.92, -1.41, -1.01]

Provide the reported log10 of IC50 of each entry below, same order.
1. CC(C)NC(=O)OC1CCn2c3ccccc3c3c4c(c5c6ccccc6n(c5c32)CC1)C(=O)NC4 (stereo not drawn) [Cpd 180]
2. O=C1NC(=O)c2c1c1c3ccccc3n3c1c1c2c2ccccc2n1CC(OC(=O)N1CCN(c2ccncc2)CC1)CC3 (stereo not drawn) [Cpd 55]
3. O=C1NCc2c1c1c3cc([N+](=O)[O-])ccc3n3c1c1c2c2ccccc2n1CC(O)C(O)C3 (stereo not drawn) [Cpd 191]
4. CN1CCN(CCCNC(=O)OC2CCn3c4ccccc4c4c5c(c6c7ccccc7n(c6c43)C2)C(=O)NC5=O)CC1 (stereo not drawn) [Cpd 43]
5. Cc1ccc(CNC(=O)OCC2(O)Cn3c4ccccc4c4c5c(c6c7ccccc7n(c6c43)C2)C(=O)NC5)o1 (stereo not drawn) [Cpd 141]
6. CC(C)OCc1ccc2c(c1)c1c3c(c4c5cc(COC(C)C)ccc5n5c4c1n2CC(CO)C5)C(=O)NC3 (stereo not drawn) [Cpd 210]

output:
1: -0.15; 2: -0.50; 3: -0.94; 4: -0.95; 5: -0.93; 6: 0.02

Provide the reported log10 of IC50 of each entry below, same order.
1. O=C1NCc2c1c1c3cc(NC4=NCCN4)ccc3n3c1c1c2c2ccccc2n1CC(O)C(O)C3 (stereo not drawn) [Cpd 206]
2. O=C(NCCCn1ccnc1)OCC1(O)Cn2c3ccccc3c3c4c(c5c6ccccc6n(c5c32)C1)C(=O)NC4 (stereo not drawn) [Cpd 152]
3. COc1ccc(CCNC(=O)OC2CCn3c4ccccc4c4c5c(c6c7ccccc7n(c6c43)CC2)C(=O)NC5)cc1OC (stereo not drawn) [Cpd 183]
4. O=C(NC1CCNCC1)OC1Cn2c3ccccc3c3c4c(c5c6ccccc6n(c5c32)CC1O)C(=O)NC4=O (stereo not drawn) [Cpd 113]

output:
-1.31
-1.08
0.10
-1.33
